Literature compilation of pIC50 measurements on Somatostatin receptor type 1 (Homo sapiens).
// pIC50 is dimensionless: -log10 of concentration (M)

Which pIC50 value belongs to CC(C)NCc1ccc(C[C@@H]2NC(=O)[C@@H](Cc3ccc4ccccc4c3)NC(=O)[C@H](Cc3ccccc3)NC(=O)[C@H](Cc3ccccc3)NC(=O)[C@H](CCCCN)NC(=O)[C@@H](N)CSSC[C@@H](C(=O)O)NC(=O)[C@H](CO)NC(=O)[C@H]([C@@H](C)O)NC(=O)[C@H](Cc3ccccc3)N(C)C(=O)[C@H]([C@@H](C)O)NC2=O)cc1 ?
6.23

Which pIC50 value belongs to CC(=O)N[C@H]1CSS[C@H](C(=O)O)NC(=O)[C@H](Cc2ccccc2)NC(=O)[C@H]([C@@H](C)O)NC(=O)[C@H](CCCCN)NC(=O)[C@@H](Cc2c[nH]c3ccccc23)NC(=O)[C@H](Cc2ccccc2)NC(=O)[C@H](Cc2ccccc2)NC1=O ?
6.45

Now consider the entry below.
Which pIC50 value belongs to CC(C)NCc1ccc(C[C@@H]2NC(=O)[C@@H](Cc3ccc4ccccc4c3)NC(=O)[C@H](Cc3ccccc3)NC(=O)[C@H](Cc3ccccc3)NC(=O)[C@H](CCCCN)NC(=O)[C@@H](NC(=O)[C@@H](N)Cc3ccc(O)cc3)CSSC[C@@H](C(=O)O)NC(=O)[C@H](CO)NC(=O)[C@H]([C@@H](C)O)NC(=O)[C@H](Cc3ccccc3)NC(=O)[C@H]([C@@H](C)O)NC2=O)cc1 ?
7.62

====

Literature compilation of IC50 measurements on Somatostatin receptor type 1 (Homo sapiens).
metric: IC50 (nM)

Which IC50 value belongs to CC(C)NCc1ccc(C[C@@H]2NC(=O)[C@@H](Cc3c[nH]c4ccccc34)NC(=O)[C@H](Cc3ccccc3)NC(=O)[C@H](Cc3ccccc3)NC(=O)[C@H](CCCCN)NC(=O)[C@@H](N)CSSC[C@@H](C(=O)O)NC(=O)[C@H](CO)NC(=O)[C@H]([C@@H](C)O)NC(=O)[C@H](Cc3ccc(O)c([125I])c3)NC(=O)[C@H]([C@@H](C)O)NC2=O)cc1 ?
3.6

I: CN(C(=O)CO)[C@H]1NC(=O)[C@H](CCCCN)NC(=O)[C@@H](Cc2c[nH]c3ccccc23)NC(=O)[C@H](Cc2ccccc2)NC(=O)[C@H](Cc2ccccc2)NC(=O)[C@@H](N)CSSC[C@@H](C(=O)O)NC(=O)[C@H](Cc2ccccc2)NC1=O (stereo in doubt; 21)
II: CC(C)[C@@H]1NC(=O)[C@H](CCCCN)NC(=O)[C@@H](Cc2c[nH]c3ccccc23)NC(=O)[C@H](Cc2ccc(O)cc2)NC(=O)[C@H](NC(=O)[C@@H](N)Cc2ccc3ccccc3c2)CSSC[C@@H](C(=O)N[C@@H](Cc2ccc3ccccc3c2)C(N)=O)NC1=O
For the pair I and II , which member has the lower IC50 number? Reply briefly: the label of your chosen item.
I
(I: 860 nM, II: 2000 nM)

====

Literature compilation of pIC50 measurements on UniProtKB P30872.
// pIC50 is dimensionless: -log10 of concentration (M)

Please review the following examples before continuing.
Return pIC50 measured with UniProtKB P30872 given this molecule: C[C@@H](O)[C@@H]1NC(=O)[C@H](Cc2ccccc2)NC(=O)[C@H]([C@@H](C)O)NC(=O)[C@H](Cc2ccc(CN)cc2)NC(=O)[C@@H](Cc2ccc3ccccc3c2)NC(=O)[C@H](Cc2ccccc2)NC(=O)[C@H](Cc2ccccc2)NC(=O)[C@H](CCCCN)NC(=O)[C@@H](N)CSSC[C@@H](C(=O)O)NC(=O)[C@H](CO)NC1=O
6.46

Return pIC50 measured with UniProtKB P30872 given this molecule: CC[C@@H]1NC(=O)[C@H](CCCCN)NC(=O)[C@@H](Cc2c[nH]c3ccccc23)NC(=O)[C@H](Cc2ccc(O)cc2)NC(=O)[C@H](NC(=O)[C@H](N)Cc2ccccc2)CSSC[C@@H](C(=O)N[C@H](C(N)=O)[C@@H](C)O)NC1=O
6.00

Continuing:
Return pIC50 measured with UniProtKB P30872 given this molecule: CC(C)NCc1ccc(C[C@@H]2NC(=O)[C@@H](Cc3c[nH]c4ccccc34)NC(=O)[C@H](Cc3ccccc3)NC(=O)[C@@H]3CCC(=O)NCC[C@H](NC(=O)[C@H]([C@@H](C)O)NC2=O)C(=O)N[C@@H]([C@@H](C)O)C(=O)N[C@@H](CO)C(=O)N[C@H](C(=O)O)CSSC[C@H](NC(=O)[C@@H](N)Cc2ccc(O)cc2)C(=O)N[C@@H](CCCCN)C(=O)N3)cc1
6.22

Return pIC50 measured with UniProtKB P30872 given this molecule: CC(C)NCc1ccc(C[C@@H]2NC(=O)[C@@H](Cc3c[nH]c4ccccc34)NC(=O)[C@H](Cc3ccccc3)NC(=O)[C@H](Cc3ccccc3)NC(=O)[C@@H](NC(=O)[C@@H](N)Cc3ccc(O)cc3)CSSC[C@@H](C(=O)O)NC(=O)[C@H]([C@@H](C)O)NC(=O)[C@H](Cc3ccccc3)NC(=O)[C@H]([C@@H](C)O)NC2=O)cc1
6.14

Return pIC50 measured with UniProtKB P30872 given this molecule: CC(C)NCc1ccc(C[C@H]2C(=O)N[C@@H]([C@@H](C)O)C(=O)N[C@@H](Cc3ccc(O)c(I)c3)C(=O)N[C@@H]3CCCCCCNC(=O)CC[C@H](NC(=O)[C@H](Cc4ccccc4)NC(=O)[C@H](CCCCN)NC(=O)[C@@H](N)CSSC[C@@H](C(=O)O)NC(=O)[C@H](CO)NC3=O)C(=O)N[C@H](Cc3c[nH]c4ccccc34)C(=O)N2C)cc1
6.21

====

Literature compilation of pIC50 measurements on Somatostatin receptor type 1 (Homo sapiens, UniProt P30872).
Sequence (P30872 whole entry): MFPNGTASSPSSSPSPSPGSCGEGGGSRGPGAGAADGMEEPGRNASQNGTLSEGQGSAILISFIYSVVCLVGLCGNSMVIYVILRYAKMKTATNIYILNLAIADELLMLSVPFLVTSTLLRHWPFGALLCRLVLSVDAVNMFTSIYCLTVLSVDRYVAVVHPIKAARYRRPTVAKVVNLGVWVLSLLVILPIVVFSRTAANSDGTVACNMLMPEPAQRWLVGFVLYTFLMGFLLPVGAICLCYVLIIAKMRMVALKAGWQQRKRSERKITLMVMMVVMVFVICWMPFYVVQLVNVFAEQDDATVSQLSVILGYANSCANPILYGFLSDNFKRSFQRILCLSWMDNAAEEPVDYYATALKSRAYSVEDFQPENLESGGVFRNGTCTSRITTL
// pIC50 is dimensionless: -log10 of concentration (M)

Please review the following examples before continuing.
Return pIC50 measured with Somatostatin receptor type 1 (Homo sapiens, UniProt P30872) given this molecule: CC(C)NCc1ccc(C[C@@H]2NC(=O)[C@@H](N(C)C(=O)c3ccc4ccccc4c3)NC(=O)[C@H](Cc3ccccc3)NC(=O)[C@H](NC(=O)[C@@H](N)Cc3ccc(O)cc3)CSSC[C@@H](C(=O)N[C@@H](Cc3ccc4ccccc4c3)C(N)=O)NC(=O)[C@H](Cc3ccccc3)NC2=O)cc1
8.09

Return pIC50 measured with Somatostatin receptor type 1 (Homo sapiens, UniProt P30872) given this molecule: CNCc1ccc(C[C@@H]2NC(=O)[C@@H](Cc3ccc4ccccc4c3)NC(=O)[C@H](Cc3ccccc3)NC(=O)[C@H](Cc3ccccc3)NC(=O)[C@H](CCCCN)NC(=O)[C@@H](N)CSSC[C@@H](C(=O)O)NC(=O)[C@H](CO)NC(=O)[C@H]([C@@H](C)O)NC(=O)[C@H](Cc3ccccc3)NC(=O)[C@H]([C@@H](C)O)NC2=O)cc1
7.00

Now consider the entry below.
Return pIC50 measured with Somatostatin receptor type 1 (Homo sapiens, UniProt P30872) given this molecule: CC(C)NCc1ccc(C[C@@H]2NC(=O)[C@@H](Cc3ccc4ccccc4c3)NC(=O)[C@H](Cc3ccccc3)NC(=O)[C@H](Cc3ccccc3)NC(=O)[C@H](CCCCN)N(C)C(=O)[C@@H](N)CSSC[C@@H](C(=O)O)NC(=O)[C@H](CO)NC(=O)[C@H]([C@@H](C)O)NC(=O)[C@H](Cc3ccccc3)NC(=O)[C@H]([C@@H](C)O)NC2=O)cc1
6.27

====

Literature compilation of IC50 measurements on Somatostatin receptor type 1 (Homo sapiens, UniProt P30872).
metric: IC50 (nM)

Please review the following examples before continuing.
Which IC50 value belongs to CC(C)[C@H](NC(=O)[C@H](CCCCN)NC(=O)[C@@H](Cc1c[nH]c2ccccc12)NC(=O)[C@H](Cc1ccc(O)cc1)NC(=O)[C@@H](Cc1ccc(Cl)cc1)NC(=O)[C@H](N)Cc1ccc2ccccc2c1)C(=O)N[C@@H](Cc1ccccc1)C(=O)N[C@@H](Cc1ccc2ccccc2c1)C(N)=O ?
1000

Which IC50 value belongs to CC(C)NCc1ccc(C[C@@H]2NC(=O)[C@@H](Cc3ccc4ccccc4c3)NC(=O)[C@H](Cc3ccccc3)NC(=O)[C@H](Cc3ccccc3)NC(=O)[C@H](CCCCN)NC(=O)[C@@H](N)CSSC[C@@H](C(=O)N[C@@H](CCCCN)C(=O)N[C@@H](CCCCN)C(=O)N[C@@H](CCCCN)C(=O)O)N(C)C(=O)[C@H](CO)NC(=O)[C@H]([C@@H](C)O)NC(=O)[C@H](Cc3ccccc3)NC(=O)[C@H]([C@@H](C)O)NC2=O)cc1 ?
144

1: C[C@@H](O)[C@@H]1NC(=O)[C@H](Cc2ccccc2)NC(=O)[C@H]([C@@H](C)O)NC(=O)[C@H](CCCCN)NC(=O)[C@@H](Cc2c[nH]c3ccccc23)NC(=O)[C@H](Cc2ccccc2)NC(=O)[C@H](Cc2ccccc2)NC(=O)[C@@H](N)CSSC[C@@H](C(=O)O)NC1=O
2: CC(C)NCc1ccc(C[C@@H]2NC(=O)[C@@H](N(C)C(=O)c3ccc4ccccc4c3)NC(=O)[C@H](Cc3ccccc3)NC(=O)[C@@H](N)CSSC[C@@H](C(=O)N[C@H](C(N)=O)[C@@H](C)O)NC(=O)[C@H](Cc3ccccc3)NC2=O)cc1
3: C[C@@H](O)[C@@H]1NC(=O)[C@H](CCCCN)NC(=O)[C@H](Cc2c[nH]c3ccccc23)NC(=O)[C@H](Cc2ccc(O)cc2)NC(=O)[C@H](Cc2ccccc2)NC(=O)[C@@H](N)CSSC[C@@H](C(=O)O)NC(=O)[C@H](Cc2ccccc2)NC1=O
Thanks in advance: please rank these 3 entries by IC50, highest to lowest. Arrange the labels as the request states and list them.
1, 3, 2
